- Test system: SN12C
- Procedure Details: NCI tumour cell line growth inhibition, 48 h
Activity calls are given as the source filed them. Cut-off read from the data, not from the text of the source: active = GI50 up to about 1.1 µM and inactive = higher.
Measurement Type: GI50

- Compound: "CC(C)C1=CCC2C(=C1)CCC1C(C)(C(=O)O)CCCC21C (stereo unspecified)"
  Result: "> 100 µM (inactive)"
- Compound: "COc1cc([C@@H]2Oc3cc4oc(-c5ccccc5)cc(=O)c4c(O)c3O[C@H]2OC)ccc1O"
  Result: "12.1 µM (inactive)"
- Compound: "C/C(=N\\NC(=O)c1ccncc1)c1ccccc1Cl"
  Result: "> 100 µM (inactive)"
- Compound: "Oc1nnc2c(-c3ccccc3)n[nH]c2n1"
  Result: "> 100 µM (inactive)"
- Compound: "CN(C)CCNCCN"
  Result: "> 100 µM (inactive)"
- Compound: "COC(=O)[C@@]1(Cc2ccc(O)cc2)C[C@@H]2Cc3ccccc3N2N1"
  Result: "71 µM (inactive)"

----------
- System: HOP-18
- Procedure Details: NCI tumour cell line growth inhibition, 48 h
The source made the active and inactive calls. Cut-off read from the data, not from the text of the source: active = GI50 up to about 1.1 µM and inactive = higher.
Classes used: active, inactive

- Molecule: "CC1=C2C(=CC(C)(CO)C2O)C(=O)C(C)(O)C12CC2 (stereo unspecified)"
  Group Label: "active"
- Molecule: "O=C1C=C(c2ccccc2)NC1(c1ccccc1)c1cc(-c2ccccc2)[nH]c1-c1ccccc1 (stereo unspecified)"
  Group Label: "inactive"
- Molecule: "CCCCC(C)/C=C/C(O)=C1\\C(=O)O/C(=C\\C(=O)O)C1=O (stereo unspecified)"
  Group Label: "inactive"
- Molecule: "CC12C(=O)N(CCN)C(=O)C1C1c3ccccc3C2c2ccccc21 (stereo unspecified)"
  Group Label: "inactive"
- Molecule: "COc1cc2ccc(C(=O)O)cc2cc1OC"
  Group Label: "inactive"
- Molecule: "Cc1ccc(C2OC(COCc3ccc(Cl)cc3)C(OCc3ccc(Cl)cc3)C2O)cc1 (stereo unspecified)"
  Group Label: "inactive"
- Molecule: "CC[P+](C)(Cc1ccccc1)c1ccccc1 (stereo unspecified)"
  Group Label: "inactive"
- Molecule: "COCC(C)(C)/N=C/N1Cc2cc3ccccc3nc2C1"
  Group Label: "inactive"
- Molecule: "Cc1cc(=O)n(-c2c(C)cccc2Cl)c(/C=C(\\O)c2ccncc2)n1"
  Group Label: "inactive"
- Molecule: "COC1=C(N)C(=O)c2nc(C)ccc2C1=O"
  Group Label: "inactive"
- Molecule: "O=C1OC2C(O)COC2(O)C1(O)Cc1c[nH]c2ccccc12.O=C1OC2C(O)COC2(OCc2c[nH]c3ccccc23)C1O (stereo unspecified)"
  Group Label: "inactive"

----------
- System: HL-60
- Procedure Details: NCI tumour cell line growth inhibition, 48 h
Activity calls are given as the source filed them. Rule as the data show it: active = GI50 up to about 1.1 µM and inactive = higher.
Outcome codes: yes (1) for active, no (0) for inactive

- Compound: "CC(=O)c1ccc(NCN2C(=O)c3ccccc3C2=O)cc1"
  Group Label: "no (0)"
- Compound: "CC1(C)CCC(C)(C)C1C(=O)NC(O)C(=O)O (configuration not stated)"
  Group Label: "no (0)"
- Compound: "COC(=O)C(=O)C(C(=O)C(=O)Nc1cccc(OC)c1)c1nc2ccc(Cl)cc2nc1O (configuration not stated)"
  Group Label: "no (0)"
- Compound: "Oc1nnc2c(-c3ccccc3)n[nH]c2n1"
  Group Label: "no (0)"
- Compound: "CC(=O)N(C(C)=O)c1c(N)n(C)c(=O)[nH]c1=O"
  Group Label: "no (0)"
- Compound: "CSc1nc2c(c(=O)[nH]1)N=C(c1ccccc1)CC(c1ccccc1)N2 (configuration not stated)"
  Group Label: "no (0)"
- Compound: "O=[N+]([O-])c1cc(F)ccc1S(=O)(=O)c1ccccc1"
  Group Label: "no (0)"
- Compound: "CC(C)(O)[C@H](CCO)O[Si](c1ccccc1)(c1ccccc1)C(C)(C)C"
  Group Label: "no (0)"
- Compound: "Cc1nc2ccccc2c(=O)n1/N=C/c1ccc(N(C)C)cc1"
  Group Label: "no (0)"
- Compound: "Oc1cc(Cl)cc2cccnc12"
  Group Label: "yes (1)"
- Compound: "[N-]=[N+]=C1C(=O)C2CC3CC(C2)CC1C3"
  Group Label: "no (0)"
- Compound: "O=C1C=C(c2ccccc2)NC1(c1ccccc1)c1cc(-c2ccccc2)[nH]c1-c1ccccc1 (configuration not stated)"
  Group Label: "no (0)"
- Compound: "O=C1c2ccccc2C2CNC1(O)c1ccccc12 (configuration not stated)"
  Group Label: "no (0)"
- Compound: "O=C1CC(Sc2nc3ccc(I)cc3c(=O)n2Cc2ccccc2)C(=O)NN1 (configuration not stated)"
  Group Label: "no (0)"
- Compound: "c1ccc2c(C3CCN(CCN4CCOCC4)C3)c[nH]c2c1 (configuration not stated)"
  Group Label: "no (0)"
- Compound: "CC(=O)OCC1OC(NC(=O)N(CCCl)N=O)C(OC(C)=O)C(OC(C)=O)C1OC(C)=O (configuration not stated)"
  Group Label: "no (0)"
- Compound: "COc1cc(/C=C2/SC(c3ccccc3)N(c3ccc(Cl)cc3)C2=O)cc(OC)c1OC (configuration not stated)"
  Group Label: "no (0)"
- Compound: "CC(=O)O[C@H]1[C@@H](OC2CCCC2(c2ccccc2)c2ccccc2)O[N+]([O-])=C[C@@H]1c1ccccc1 (some centres not stated)"
  Group Label: "no (0)"
- Compound: "COCC1OC(OC2C3=C(C(C)C)CCC3(C)/C=C3\\C(CCC3(O)COC)C(C)C2O)C(O)C2OC3OC12OC3(C)C1CO1 (configuration not stated)"
  Group Label: "no (0)"
- Compound: "O=C1Cc2ccccc2N1/N=C\\c1ccc([N+](=O)[O-])cc1"
  Group Label: "no (0)"
- Compound: "N#CC(C(=O)CCC(=O)Nc1cccc(C(F)(F)F)c1)c1ccc(Cl)cc1 (configuration not stated)"
  Group Label: "no (0)"
- Compound: "CC(=O)c1cccc(C)c1C(=O)O"
  Group Label: "no (0)"
